# System: redroot pigweed (Amaranthus retroflexus, AMARE)
# TEST PROTOCOL: Post-emerge greenhouse herbicide test, phytotoxicity rating
# Type: in vivo
# CONDITION: Amaranthus retroflexus, post-emergence, 336 h, rate 63 g ai/ha, 14 days after application, scale 0-100
Below, each entry is listed alongside its reported pest or weed control at 63 g/ha.
Your answer is read as %, so omit the unit and give the number.

Known results for compounds:
1) Nn1c(C(F)(F)F)cc(=O)n(-c2cc(Oc3ncccc3C(F)(F)F)c(Cl)cc2F)c1=O :: 100
2) Nn1c(C(F)(F)F)cc(=O)n(-c2cc(Oc3ncccn3)c(Cl)cc2F)c1=O :: 100
3) Nn1c(C(F)(F)F)cc(=S)n(-c2cc(Oc3ccc(Cl)cn3)c(Cl)cc2F)c1=O :: 90

Inquiry: Name the recorded pest or weed control at 63 g/ha of the item "N#Cc1ccc(Oc2cc(-n3c(=O)cc(C(F)(F)F)n(N)c3=O)c(F)cc2Cl)nc1" in your answer.
Reply text: 100

Inquiry: Please give measured pest or weed control at 63 g/ha of the following entry: "Nn1c(C(F)(F)F)cc(=O)n(-c2cc(Oc3ccc([N+](=O)[O-])cc3C(F)(F)F)c(Cl)cc2F)c1=O"
Reply text: 100

###

# Tested on: redroot pigweed (Amaranthus retroflexus, AMARE)
# TEST PROTOCOL: Post-emerge greenhouse herbicide test, phytotoxicity rating
# Assay type: in vivo
# CONDITION: 500 g al/ha, 14 days after application
AMARE phytotoxicity rating (0-100): recorded values

1. CS(=O)(=O)Nc1ccc(Oc2cc(-n3c(=O)cc4n(c3=O)CCC4)c(F)cc2Cl)cc1 :: 0
2. Cc1nn(-c2cc(Oc3ncccn3)c(Cl)cc2F)c(=O)n1C(F)F :: 100
3. O=C1C2CCCCN2C(=O)N1c1cc(Oc2ncccc2C(F)(F)F)c(Cl)cc1F (stereo not drawn) :: 100

Inquiry: Could you please provide reported AMARE phytotoxicity rating (0-100) for "O=c1n(-c2cc(Oc3ccc([N+](=O)[O-])cc3)c(Cl)cc2F)c(=S)n2n1CCCC2" ? Thanks!
Reply text: 100

Inquiry: Report AMARE phytotoxicity rating (0-100), nothing else, for this molecule: "Cn1c(C(F)(F)F)nc(-c2cc(Oc3ncccn3)c(Cl)cc2F)c1Cl"
Reply text: 100

Inquiry: Input "O=c1n(CCCF)nnn1-c1cc(Oc2ncccc2[N+](=O)[O-])c(Cl)cc1Cl" , output reported AMARE phytotoxicity rating (0-100).
Reply text: 80

###

# Tested on: ivyleaf morningglory (Ipomoea hederacea, IPOHE)
# TEST PROTOCOL: Post-emerge greenhouse herbicide test, phytotoxicity rating
# Format: in vivo
# CONDITION: rate 63 g ai/ha, 14 days after application, scale 0-100
# Description: A standard greenhouse herbicide activity screening system was used to evaluate the herbicidal efficacy and crop safety of these test compounds. […] At 14 days after application of the test materials, phytotoxicity ratings were recorded. […]
Listed here: items and their measured phytotoxicity rating IPOHE.
Please reply with the value in numeric form only.

1) O=c1n(-c2cc(Oc3nccc(C(F)(F)F)n3)c(Cl)cc2F)c(=S)n2n1CCCC2 :: 100

Inquiry: For the compound "O=c1n(-c2cc(Oc3ncc([N+](=O)[O-])s3)c(Cl)cc2F)c(=S)n2n1CCCC2" , give its reported phytotoxicity rating IPOHE.
Reply text: 100

Inquiry: Item "Nc1cccnc1Oc1cc(-n2c(=O)n3n(c2=S)CCCC3)c(F)cc1Cl" : provide phytotoxicity rating IPOHE
Reply text: 60

Inquiry: Give the measured phytotoxicity rating IPOHE for "CS(=O)(=O)c1cccnc1Oc1cc(-n2c(=O)n3n(c2=S)CCCC3)c(F)cc1Cl"
Reply text: 90

Inquiry: Output phytotoxicity rating IPOHE of "O=c1n(-c2cc(Oc3cccc(F)n3)c(Cl)cc2F)c(=S)n2n1CCCC2"
Reply text: 100

###

# Test system: soybean (Glycine max L., var. Pella 86, SOY)
# TEST PROTOCOL: Pre-emerge greenhouse test, crop damage rating
# Type: in vivo
# CONDITION: 125 g ai/ha, 14 days after application, rating scale 0-100
crop damage rating SOY values, listed per item
// return a plain number; no unit text

1) Cn1c(C(F)(F)F)nc(-c2cc(Oc3ncccc3[N+](=O)[O-])c(Cl)cc2F)c1Cl :: 0
2) Cn1nc(-c2cc(Oc3ncccc3C(F)(F)F)c(Cl)cc2F)c(Cl)c1C(F)(F)F :: 0

For the next question, use this compound.
Inquiry: Supply measured crop damage rating SOY of "CCN1CC(=O)N(c2cc(Oc3ncccn3)c(Cl)cc2F)C1=O" in your reply.
Reply text: 0

###

phytotoxicity rating CHEAL values by entry
# System: lambsquarters (Chenopodium album, CHEAL)
# TEST PROTOCOL: Post-emerge greenhouse herbicide test, phytotoxicity rating
# Format: in vivo
# CONDITION: rate 500 g ai/ha, 14 days after application, scale 0-100
Answer as a number with no unit attached.

Worked examples follow.
1) O=c1n(-c2cc(Oc3ccc([N+](=O)[O-])cn3)c(Cl)cc2F)c(=S)n2n1CCCC2 [Compound 8-23] :: 99
2) CS(=O)(=O)c1cccnc1Oc1cc(-n2c(=O)n3n(c2=S)CCCC3)c(F)cc1Cl [Compound 8-21] :: 100
3) COc1cc(OC)nc(Oc2cc(-n3c(=O)n4n(c3=S)CCCC4)c(F)cc2Cl)n1 [Compound 8-33] :: 100
4) O=c1n(-c2cc(Oc3cccc(Cl)n3)c(Cl)cc2F)c(=S)n2n1CCCC2 [Compound 8-26] :: 0

Here's the next entry for you.
Inquiry: Return the recorded phytotoxicity rating CHEAL value; entry: O=c1n(-c2cc(Oc3nc(Cl)ccc3C(F)(F)F)c(Cl)cc2F)c(=S)n2n1CCCC2 [Compound 8-27]
Reply text: 100

###

# System: green foxtail (Setaria viridis, SETVI)
# TEST PROTOCOL: Post-emerge greenhouse herbicide test, phytotoxicity rating
# Assay type: in vivo
# CONDITION: 500 g al/ha, 14 days after application
SETVI phytotoxicity rating (0-100) for assorted compounds
Note: the reply should be a number with no unit written.

Answered examples (3):
1. COc1nc(OC)nc(Oc2cc(-c3nc(C)n(C(F)F)c3Cl)c(F)cc2Cl)n1 [Compound 2-4] :: 50
2. N#Cc1cccnc1Oc1cc(-n2nnn(CCCF)c2=O)c(F)cc1Cl [Compound 6-4] :: 40
3. O=c1n(-c2cc(Oc3ccccc3)c(Cl)cc2F)c(=S)n2n1CCCC2 [Compound 8-5] :: 65

Inquiry: State the measured SETVI phytotoxicity rating (0-100) (green foxtail (Setaria viridis, SETVI)) of COc1nc(OC)nc(Oc2cc(-c3nn(C)c(C(F)(F)F)c3Cl)c(F)cc2Cl)n1 [Compound 1-8]
Reply text: 20

###

# System: barnyardgrass (Echinochloa crusgalli, ECHCG)
# TEST PROTOCOL: Pre-emerge greenhouse herbicide test, phytotoxicity rating
# Format: in vivo
# CONDITION: Echinochloa crus-galli, pre-emergence, 336 h, Rate 500 g al/ha, 14 days after application, rating scale 0-100
Entries and their measured pest or weed control at 500 g/ha follow.
Your answer is read as %, so omit the unit and give the number.

Reference set (4 entries):
1) Nn1c(C(F)(F)F)cc(=O)n(-c2cc(Oc3ccccc3C(F)(F)F)c(Cl)cc2F)c1=O [Compound 9-24] :: 70
2) Cc1nsc(Oc2cc(-n3c(=O)cc(C(F)(F)F)n(N)c3=O)c(F)cc2Cl)c1[N+](=O)[O-] [Compound 9-14] :: 90
3) Nn1c(C(F)(F)F)cc(=O)n(-c2cc(Oc3ncccc3C(F)(F)F)c(Cl)cc2F)c1=O [Compound 9-7] :: 100
4) Nn1c(C(F)(F)F)cc(=O)n(-c2cc(Oc3ncccn3)c(Cl)cc2F)c1=O [Compound 9-16] :: 100

We next turn to a different molecule, shown below.
Inquiry: Identify the reported pest or weed control at 500 g/ha for the following entry. Nn1c(C(F)(F)F)cc(=O)n(-c2cc(Oc3ccccn3)c(Cl)cc2F)c1=O [Compound 9-15]
Reply text: 100

###

# Test system: ivyleaf morningglory (Ipomoea hederacea, IPOHE)
# TEST PROTOCOL: Post-emerge greenhouse herbicide test, phytotoxicity rating
# Format: in vivo
# CONDITION: 500 g al/ha, 14 days after application
# Experimental: A standard greenhouse herbicide activity screening system was used to evaluate the herbicidal efficacy and crop safety of these test compounds. […] At 14 days after application of the test materials, phytotoxicity ratings were recorded. […]
We begin with a simple list: items and their reported IPOHE phytotoxicity rating (0-100).
A bare number is all that is needed in reply.

The cases that follow already have their IPOHE phytotoxicity rating (0-100) on record.
1) CCN1CC(=O)N(c2cc(Oc3ncccn3)c(Cl)cc2F)C1=O :: 100
2) O=c1n(-c2cc(Oc3ccccc3[N+](=O)[O-])c(Cl)cc2F)c(=S)n2n1CCCC2 :: 100
3) Cn1c(C(F)(F)F)nc(-c2cc(Oc3ncccn3)c(Cl)cc2F)c1Cl :: 100
4) O=c1n(CCCF)nnn1-c1cc(Oc2ncccc2[N+](=O)[O-])c(Cl)cc1Cl :: 70
5) O=c1n(CCCF)nnn1-c1cc(Oc2ncc(Br)cn2)c(Cl)cc1F :: 95

Inquiry: Identify measured IPOHE phytotoxicity rating (0-100) corresponding to "Cn1nc(-c2cc(Oc3nc(F)c(F)cc3F)c(Cl)cc2F)c(Cl)c1C(F)(F)F"
Reply text: 100

Inquiry: Consider the compound "CN1CC(=O)N(c2cc(Oc3ncccn3)c(Cl)cc2F)C1=O" . State its measured IPOHE phytotoxicity rating (0-100).
Reply text: 90

Inquiry: Output IPOHE phytotoxicity rating (0-100) of "O=c1n(CCCF)nnn1-c1cc(Oc2ncccn2)c(Cl)cc1F"
Reply text: 100

Inquiry: State, in one line, measured IPOHE phytotoxicity rating (0-100) of "O=c1n(CCCF)nnn1-c1cc(Oc2ncccc2C(F)(F)F)c(Cl)cc1Cl"
Reply text: 50

Inquiry: Quickly give me recorded IPOHE phytotoxicity rating (0-100) for "O=c1sc(=Nc2cc(Oc3ncccc3C(F)(F)F)c(Cl)cc2F)n2n1CCCC2"
Reply text: 100

Inquiry: Determine its reported IPOHE phytotoxicity rating (0-100): "Nc1ccc(Oc2cc(-n3c(=O)n4n(c3=S)CCCC4)c(F)cc2Cl)c(C(F)(F)F)c1"
Reply text: 80

Inquiry: Give IPOHE phytotoxicity rating (0-100) for "Nc1ccc(Oc2cc(-n3c(=O)n4n(c3=S)CCCC4)c(F)cc2Cl)cc1"
Reply text: 100

Inquiry: Answer with the recorded IPOHE phytotoxicity rating (0-100) for the compound listed here: O=C1C2CCCCN2C(=O)N1c1cc(Oc2ncccc2C(F)(F)F)c(Cl)cc1F (stereo not shown)
Reply text: 60

Inquiry: Quick one: give measured IPOHE phytotoxicity rating (0-100) for "CS(=O)(=O)Nc1ccc(Oc2cc(-n3c(=O)cc4n(c3=O)CCC4)c(F)cc2Cl)cc1"
Reply text: 0

Inquiry: Give the reported value of IPOHE phytotoxicity rating (0-100) for this record: "Cn1nc(-c2cc(Oc3ccc(C#N)cn3)c(Cl)cc2F)c(Cl)c1C(F)(F)F"
Reply text: 100

Inquiry: Query IPOHE phytotoxicity rating (0-100) for "O=c1n(CCCF)nnn1-c1cc(Oc2ncccc2[N+](=O)[O-])c(Cl)cc1F"
Reply text: 90

Inquiry: Supply reported IPOHE phytotoxicity rating (0-100) belonging to this compound: "O=c1n(-c2cc(Oc3ccccc3)c(Cl)cc2F)c(=S)n2n1CCCC2"
Reply text: 100

Inquiry: Give the value of IPOHE phytotoxicity rating (0-100) reported for the following: "COc1nc(OC)nc(Oc2cc(-c3nc(C)n(C(F)F)c3Cl)c(F)cc2Cl)n1"
Reply text: 75
